Molecular target: SMYD2 (Homo sapiens (Human), UniProt Q9NRG4)
Sequence (Q9NRG4 whole entry): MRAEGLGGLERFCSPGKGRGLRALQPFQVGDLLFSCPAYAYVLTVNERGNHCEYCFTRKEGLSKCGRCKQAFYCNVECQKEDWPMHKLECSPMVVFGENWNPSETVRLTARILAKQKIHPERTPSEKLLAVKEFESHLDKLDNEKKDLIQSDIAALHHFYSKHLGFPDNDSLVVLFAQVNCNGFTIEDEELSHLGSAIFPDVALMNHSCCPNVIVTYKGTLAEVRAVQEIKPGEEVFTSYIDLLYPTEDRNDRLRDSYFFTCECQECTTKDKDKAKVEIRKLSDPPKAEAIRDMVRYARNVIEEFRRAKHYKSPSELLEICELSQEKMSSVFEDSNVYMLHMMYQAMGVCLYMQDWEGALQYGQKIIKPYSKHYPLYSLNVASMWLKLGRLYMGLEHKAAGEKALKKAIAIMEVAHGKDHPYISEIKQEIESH
Assay: SMYD2 biochemical assay (SMYD2 enzyme assay on peptide substrate, 3H-SAM Flashplate)
Conditions: read-out: SMYD2 Biochem IC50; IC50 values are an average of n = 1 to n = 50
pIC50: −log10 of the molar value.
observable: pIC50

>  <compound>
O=C(NC1CN(Cc2cnn(Cc3cscn3)c2)C1)c1cn(C2CC2)nn1 [compound 945]

>  <pIC50>
5.92

$$$$
>  <compound>
O=C(NC1CN(Cc2ccc(OCc3ccccc3)cc2)C1)c1cn(C2CC2)nn1 [compound 802]

>  <pIC50>
7.08

$$$$
>  <compound>
O=C(NC1CN(Cc2cnn(CCc3ccccc3)c2)C1)c1cn(C2CC2)nn1 [compound 806]

>  <pIC50>
6.01

$$$$

1 = CC(c1ccc(OCCN(C)C)cc1)N1CC(NC(=O)c2cn(C3CC3)nn2)C1 (stereo not drawn) [compound 857]
2 = CC(c1ccc(OCc2ccccc2)cc1Cl)N1CC(NC(=O)c2cn(C3CC3)nn2)C1 (stereo not drawn) [compound 817]
3 = C[C@H](c1ccccc1)N1CC(NC(=O)c2cn(C3CC3)nn2)C1 [compound 720]
input: Hey, quick one: sort these by pIC50, largest value first please. To answer, write out the labels according to the requested order.
output: 2, 1, 3
(2: 6.99, 1: 5.70, 3: 4.63)

1 = CC(c1cc(Cl)ccc1C(F)(F)F)N1CC(NC(=O)c2cn(C3CC3)nn2)C1 (stereo not drawn) [compound 976]
2 = O=C(NC1CN(C(CO)c2ccccc2)C1)c1cn(C2CC2)nn1 (stereo not drawn) [compound 674]
3 = CC(c1ccc(N2CCOCC2)cc1)N1CC(NC(=O)c2cn(C3CC3)nn2)C1 (stereo not drawn) [compound 728]
input: # sort list by recorded pIC50, greatest to least Ranked list of labels, please, in the requested order.
output: 3, 1, 2

Source: patent US10266526B2
